Reference source for all entries: ChEMBL document CHEMBL1128444

The next entries give measured IC50 for Sodium-dependent serotonin transporter (Rattus norvegicus, UniProt P31652).
Field format: number, assumed nM, no unit text.

For orientation, consider the following solved cases.
COC(=O)C1C(c2ccc(N)c(I)c2)CC2CCC1N2C (stereo not given) : 120
CN1C2CCC1C(C(=O)Oc1ccccc1)C(c1ccc(I)cc1)C2 (stereo not given) : 184
COC(=O)C1C(c2ccc(Cl)c(C)c2)CC2CCC1N2C (stereo not given) : 10.5
CN1[C@H]2CC[C@@H]1[C@@H](C(=O)N1CCCC1)[C@@H](c1ccc(Cl)cc1)C2 : 12400
CCCOC(=O)C1C(OC(=O)c2ccccc2)CC2CCC1N2C (stereo not given) : 4520

Lab note: next compound to report on.
Ask: Please report the recorded IC50 for CON(C)C(=O)C1C(c2ccc(C)cc2)CC2CCC1N2C (stereo not given) .
Result: 3400

----------
- system name: Sodium-dependent serotonin transporter (Rattus norvegicus, UniProt P31652)
- Sequence (P31652 whole entry): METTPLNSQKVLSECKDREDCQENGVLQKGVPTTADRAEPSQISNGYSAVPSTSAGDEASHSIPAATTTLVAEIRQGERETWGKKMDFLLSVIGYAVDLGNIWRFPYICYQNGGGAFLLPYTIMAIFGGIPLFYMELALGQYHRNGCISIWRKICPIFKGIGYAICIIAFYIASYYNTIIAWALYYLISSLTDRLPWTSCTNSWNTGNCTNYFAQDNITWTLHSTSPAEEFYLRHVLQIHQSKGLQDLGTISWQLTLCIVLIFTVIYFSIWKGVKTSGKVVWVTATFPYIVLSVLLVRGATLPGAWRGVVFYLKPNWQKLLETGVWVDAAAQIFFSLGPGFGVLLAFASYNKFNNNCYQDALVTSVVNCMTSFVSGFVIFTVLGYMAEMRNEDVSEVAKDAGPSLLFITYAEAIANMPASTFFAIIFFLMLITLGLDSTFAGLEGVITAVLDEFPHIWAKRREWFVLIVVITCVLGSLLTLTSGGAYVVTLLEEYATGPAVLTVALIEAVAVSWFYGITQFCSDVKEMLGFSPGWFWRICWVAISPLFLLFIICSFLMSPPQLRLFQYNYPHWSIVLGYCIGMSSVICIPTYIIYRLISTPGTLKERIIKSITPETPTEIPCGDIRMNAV
- test method notes: Binding affinity at the Serotonin transporter in rat midbrain by inhibition of 0.5 nM [3H]-paroxetine binding
- Format: tissue-based
measurement label: pIC50
In plain terms, pIC50 is the concentration in mol/L turned into minus its base-10 logarithm.

Ask: What does the data say about its pIC50? Entry: Cc1ccc(C2CC3CCC(C2C(=O)OC2CCCC2)N3C)cc1 (stereo unspecified)
Result: 6.31

Ask: Entry CN1C2CCC1C(C(=O)N1CCC1)C(c1ccc(Cl)cc1)C2 (stereo unspecified) has what pIC50?
Result: 6.09

Ask: GET /values?readout=pIC50&item= Cc1ccc(C2CC3CCC(C2C(=O)Oc2ccccc2C)N3C)cc1 (stereo unspecified)
Result: 4.96

Ask: Please give the measured pIC50 for this compound: CC(C)OC(=O)C1C(OC(=O)c2ccccc2)CC2CCC1N2C (stereo unspecified)
Result: 4.60

Ask: Could you tell me which pIC50 is on file for CN1C2CCC1C(C(=O)Oc1ccc(Cl)cc1)C(c1ccc(Cl)cc1)C2 (stereo unspecified) ?
Result: 4.77

----------
- system name: Norepinephrine transporter (Rattus norvegicus)
The following molecules are shown together with reported IC50 values.
Show the value, then the unit it is measured in.

Answered cases to consult:
CN1C2CCC1C(C(=O)OCCCc1ccccc1)C(OC(=O)c1ccccc1)C2 (stereo unspecified) : 4.89 µM
CN1C2CCC1C(C(N)=O)C(c1ccc(Cl)cc1)C2 (stereo unspecified) : 4.27 µM

Ask: Recorded IC50 for Cc1ccc(C2CC3CCC(C2C(=O)Oc2ccccc2)N3C)cc1 (stereo unspecified) with Norepinephrine transporter (Rattus norvegicus), please?
Result: 5.83 µM

----------
- system name: Sodium-dependent serotonin transporter (Rattus norvegicus, UniProt P31652)
- test method notes: Inhibition of [3H]- 5-HT uptake in Serotonin transporter using serotonin uptake assay in rat midbrain tissue
- Type: tissue-based
Catalogue of pKi values
Give only the number. pKi is defined as minus log10 of concentration in molar units.

CN1C2CCC1C(C(=O)Oc1ccccc1)C(c1ccc(Cl)cc1)C2 (configuration not stated) : 6.41
Cc1ccc(C2CC3CCC(C2C(=O)Oc2ccccc2)N3C)cc1 (configuration not stated) : 5.81

Ask: So what's the measured pKi for this one? COC(=O)C1C(c2ccc(Cl)cc2)CC2CCC1N2C (configuration not stated)
Result: 8.30

Ask: For CC(C)OC(=O)C1C(c2ccc(Cl)cc2)CC2CCC1N2C (configuration not stated) , what is its reported pKi?
Result: 6.89

Ask: Which measured pKi value corresponds to CN1C2CCC1C(C(=O)Oc1ccccc1)C(c1ccc(I)cc1)C2 (configuration not stated) ?
Result: 7.29

Ask: # query: pKi of entry COC(=O)C1C(c2ccc(I)cc2)CC2CCC1N2C (configuration not stated)
Result: 8.76

Ask: Quick one: pKi for `COC(=O)[C@H]1[C@@H](c2ccc(F)cc2)C[C@H]2CC[C@H]1N2C` ?
Result: 7.00

----------
Below, each of the molecules is paired with its reported Ratio value.
- system name: Monoamine transporters; serotonin & dopamine (Rattus norvegicus) (UniProt P31652+P23977)
- Sequence (P23977 whole entry, looked up): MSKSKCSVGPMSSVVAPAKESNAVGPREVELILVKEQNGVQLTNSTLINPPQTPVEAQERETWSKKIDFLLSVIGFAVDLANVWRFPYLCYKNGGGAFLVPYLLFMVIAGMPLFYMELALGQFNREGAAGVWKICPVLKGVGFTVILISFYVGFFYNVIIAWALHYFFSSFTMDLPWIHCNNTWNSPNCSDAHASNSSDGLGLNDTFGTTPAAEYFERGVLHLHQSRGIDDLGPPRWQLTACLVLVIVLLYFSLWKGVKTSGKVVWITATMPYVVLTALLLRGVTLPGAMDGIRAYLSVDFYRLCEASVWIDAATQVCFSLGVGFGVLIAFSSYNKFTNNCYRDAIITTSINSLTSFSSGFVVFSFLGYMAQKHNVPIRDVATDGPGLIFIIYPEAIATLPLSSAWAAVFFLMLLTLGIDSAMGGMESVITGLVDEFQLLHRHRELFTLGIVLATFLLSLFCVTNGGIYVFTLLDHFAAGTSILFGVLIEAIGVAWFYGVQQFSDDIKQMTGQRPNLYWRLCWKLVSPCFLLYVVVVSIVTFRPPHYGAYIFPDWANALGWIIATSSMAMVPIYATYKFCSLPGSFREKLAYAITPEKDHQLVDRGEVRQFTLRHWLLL
- Sequence (P31652 whole entry, looked up): as the sequence (P31652 whole entry) above
- test method notes: Ratio of IC50 value against Serotonin transporter to that of dopamine transporter
- Assay type: protein assay

CCOC(=O)C1C(OC(=O)c2ccccc2)CC2CCC1N2C (stereo unspecified) : 30
Cc1ccc(C2CC3CCC(C2C(=O)OC(C)C)N3C)cc1 (stereo unspecified) : 59.9
CCN(CC)C(=O)C1C(c2ccc(Cl)cc2)CC2CCC1N2C (stereo unspecified) : 1730
CCN(CC)C(=O)C1C(c2ccc(C)cc2)CC2CCC1N2C (stereo unspecified) : 1370
CN1C2CCC1C(C(=O)Oc1ccc(I)cc1)C(c1ccc(Cl)cc1)C2 (stereo unspecified) : 38
Cc1ccc(C2CC3CCC(C2C(=O)Oc2ccccc2C)N3C)cc1 (stereo unspecified) : 476
COC(=O)C1C(c2ccc(I)cc2)CC2CCC1N2C (stereo unspecified) : 3.3
CN1C2CCC1C(C(=O)N1CCC1)C(c1ccc(Cl)cc1)C2 (stereo unspecified) : 124

Ask: Can you share its Ratio? I mean this molecule: CN1C2CCC1C(C(=O)N1CCCO1)C(c1ccc(I)cc1)C2 (stereo unspecified)
Result: 173

Ask: For the molecule Cc1ccc(C2CC3CCC(C2C(=O)OC2CCCC2)N3C)cc1 (stereo unspecified) , what Ratio is on record?
Result: 27

Ask: Requested field: Ratio. Item: CN1C2CCC1C(C(=O)N1CCCCC1)C(c1ccc(Cl)cc1)C2 (stereo unspecified)
Result: 499

Ask: Look at this molecule and give its reported Ratio. CN1C2CCC1C(C(=O)Oc1ccccc1)C(c1ccc(I)cc1)C2 (stereo unspecified)
Result: 123

Ask: For the molecule CN(C)C(=O)C1C(c2ccc(Cl)cc2)CC2CCC1N2C (stereo unspecified) , what Ratio is on record?
Result: 782

Ask: Reported Ratio, molecule CN1C2CCC1C(C(=O)Oc1ccc(Cl)cc1)C(c1ccc(Cl)cc1)C2 (stereo unspecified) : ____
Result: 308

Ask: Which value of Ratio has been reported for CC(C)OC(=O)C1C(c2ccccc2)CC2CCC1N2C (stereo unspecified) in the records?
Result: 272

Ask: Look up Ratio for this molecule: CON(C)C(=O)C1C(c2ccc(I)cc2)CC2CCC1N2C (stereo unspecified)
Result: 68

----------
- system name: Norepinephrine transporter (Rattus norvegicus, UniProt Q9WTR4)
- Sequence (Q9WTR4 whole entry): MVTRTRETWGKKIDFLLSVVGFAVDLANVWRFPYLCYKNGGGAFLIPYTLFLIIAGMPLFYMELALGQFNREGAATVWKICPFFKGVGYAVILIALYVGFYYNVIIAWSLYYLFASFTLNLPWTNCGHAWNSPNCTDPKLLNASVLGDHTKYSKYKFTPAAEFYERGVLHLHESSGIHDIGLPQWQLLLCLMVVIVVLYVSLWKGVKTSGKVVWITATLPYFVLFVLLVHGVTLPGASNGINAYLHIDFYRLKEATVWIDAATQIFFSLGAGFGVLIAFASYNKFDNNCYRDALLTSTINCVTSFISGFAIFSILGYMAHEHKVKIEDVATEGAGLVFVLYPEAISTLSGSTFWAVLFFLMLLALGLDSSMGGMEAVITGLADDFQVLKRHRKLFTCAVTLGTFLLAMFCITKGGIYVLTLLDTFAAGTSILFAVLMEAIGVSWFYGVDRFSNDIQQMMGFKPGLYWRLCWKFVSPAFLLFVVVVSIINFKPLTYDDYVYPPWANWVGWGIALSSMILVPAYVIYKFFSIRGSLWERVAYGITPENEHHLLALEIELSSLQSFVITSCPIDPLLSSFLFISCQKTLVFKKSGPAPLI
pIC50: −log10 of the molar value.
Kindly note that classification relies on pIC50 with these boundaries: 1 = under 5, 2 = from 5 up to 6, 3 = 6 and over

Example results:
Cc1ccccc1OC(=O)C1C(c2ccc(Cl)cc2)CC2CCC1N2C (stereo unspecified) : 2
Cc1ccc(C2CC3CCC(C2C(=O)Oc2ccccc2C)N3C)cc1 (stereo unspecified) : 1
COC(=O)C1C(c2ccc(C)cc2)CC2CCC1N2C (stereo unspecified) : 3
CON(C)C(=O)C1C(c2ccc(I)cc2)CC2CCC1N2C (stereo unspecified) : 3
CN1C2CCC1C(C(=O)Oc1ccccc1)C(c1ccc(I)cc1)C2 (stereo unspecified) : 2

Ask: Dear colleague, I would appreciate it if you could identify the bin for CNC(=O)C1C(OC(=O)c2ccccc2)CC2CCC1N2C (stereo unspecified) and reply at your convenience.
Result: 2

Ask: State the band of CN1C2CCC1C(C(=O)Oc1ccccc1)C(c1ccccc1)C2 (stereo unspecified)
Result: 1

Ask: Input CN1C2CCC1C(C(=O)OC/C=C/c1ccccc1)C(OC(=O)c1ccccc1)C2 (stereo unspecified) ; output its category
Result: 1

Ask: // return the class label for Cc1cccc(OC(=O)C2C(c3ccc(Cl)cc3)CC3CCC2N3C)c1 (stereo unspecified)
Result: 2

----------
The next entries give measured IC50 for Sodium-dependent dopamine transporter (Rattus norvegicus, UniProt P23977).
# unit: nM | format: bare number

Past entries and their recorded results:
COC(=O)C1C(c2ccc(I)cc2)CC2CCC1N2C (stereo unspecified) : 1.26
COC(=O)C1C(c2ccc(C)cc2)CC2CCC1N2C (stereo unspecified) : 1.71

Ask: // fetch Sodium-dependent dopamine transporter (Rattus norvegicus, UniProt P23977) IC50 for CON(C)C(=O)C1C(c2ccc(C)cc2)CC2CCC1N2C (stereo unspecified)
Result: 2.55

Ask: Item CCCOC(=O)C1C(OC(=O)c2ccccc2)CC2CCC1N2C (stereo unspecified) with Sodium-dependent dopamine transporter (Rattus norvegicus, UniProt P23977) - IC50?
Result: 196

Ask: What is its IC50 for Sodium-dependent dopamine transporter (Rattus norvegicus, UniProt P23977)? Entry: `CN1[C@H]2CC[C@@H]1[C@@H](C(=O)N1CCCC1)[C@@H](c1ccc(I)cc1)C2`
Result: 0.37

----------
- system name: Norepinephrine transporter (Rattus norvegicus, UniProt Q9WTR4)
- test method notes: Inhibition of [3H]NE uptake by rat frontal cortex Norepinephrine transporter
measurement label: pKi
// pKi here means minus log10 of the molar concentration (mol/L)

Ask: Give its pKi value. Item: Cc1ccc(C2CC3CCC(C2C(=O)OC(C)C)N3C)cc1 (stereo not given)
Result: 7.13

Ask: State the recorded pKi for this entry: Cc1ccc(C2CC3CCC(C2C(=O)Oc2ccccc2)N3C)cc1 (stereo not given)
Result: 6.56

Ask: Recorded pKi for CC(C)OC(=O)C1C(c2ccc(Cl)cc2)CC2CCC1N2C (stereo not given) , please?
Result: 6.60

Ask: # input compound: COC(=O)C1C(c2ccc(C)cc2)CC2CCC1N2C (stereo not given) ; wanted: its pKi
Result: 8.07

Ask: Return reported pKi; argument: COC(=O)C1C(c2ccc(I)cc2)CC2CCC1N2C (stereo not given)
Result: 8.12

Ask: Given the entry CN1C2CCC1C(C(=O)Oc1ccccc1)C(c1ccc(Cl)cc1)C2 (stereo not given) , report its measured pKi.
Result: 6.62

Ask: Quick check: pKi of `COC(=O)[C@H]1[C@@H](c2ccc(F)cc2)C[C@H]2CC[C@H]1N2C` ?
Result: 7.41

Ask: // returns reported pKi for input `COC(=O)[C@@H]1C2CC[C@H](C[C@@H]1c1ccccc1)N2C`
Result: 7.43

Ask: What value of pKi has been recorded for this entry: CN1C2CCC1C(C(=O)Oc1ccccc1)C(c1ccc(I)cc1)C2 (stereo not given)
Result: 7.49

Ask: # input compound: CC(C)OC(=O)C1C(c2ccc(I)cc2)CC2CCC1N2C (stereo not given) ; wanted: its pKi
Result: 7.38
